- Tested on: A498
- Protocol Summary: NCI tumour cell line growth inhibition, 48 h
Active and inactive are the calls of the source. Rule as the data show it: active = GI50 up to about 1.1 µM and inactive = higher.
Measured Attribute: GI50

• C[C@H]1C(=O)C2=C[C@H]1CCC(=O)[C@]1(C)CCCC(C)(C)[C@H]1C[C@H]2O = 12.1 µM (inactive)
• COc1ccc(OC)c2c1ccc1c(C)c3ccccc3c(C)c12 = 61 µM (inactive)
• CC(=O)NCCC1CNc2ccccc21 (stereo unspecified) = > 100 µM (inactive)
• CCC(C#N)NC(=O)NC(C#N)CC (stereo unspecified) = > 100 µM (inactive)
• Cc1cc(NS(=O)(=O)c2ccc(NC(=O)c3cccc4c(Nc5ccc(S(=O)(=O)Nc6cc(C)on6)cc5)c5ccc(Cl)cc5nc34)cc2)no1 = 55 µM (inactive)
• CCOC(=O)CSC1NC(C(=O)OC)CC1OC (stereo unspecified) = > 100 µM (inactive)
• CC(C)(C)OC(=O)NC(Cc1ccccc1)C(=S)N1CCCC1 (stereo unspecified) = > 100 µM (inactive)
• O=C(c1cccs1)N1CCN(C(=O)c2cccs2)C1=S = 15.1 µM (inactive)
• CCCCCCCCCCNC(=S)OC = 46.2 µM (inactive)
• CC(C)Cc1cc(CCC(=O)Nc2ccccc2[N+](=O)[O-])nc(NC#N)n1 = > 100 µM (inactive)
• O=C(O)c1[nH]c(=O)[nH]c(=O)c1CN1CCCCC1 = > 100 µM (inactive)

Taken from ChEMBL document CHEMBL1201862.
